Form field: SARS-CoV-2 infection rate (one value per entry).
- Tested on: Vero E6 infected with SARS-CoV-2
- Procedure Summary: SARS-CoV-2 infection rate relative to infected DMSO; higher = more infection, active = 60 or less
- Test Conditions: 24 h
Lab book: enter the figure in %, no units written.

Compound	SARS-CoV-2 infection rate / %
CN(C)CCNc1nc2cc(O)ccc2c2c1C(=O)c1ccccc1-2 (10 µM)	106
CC(N)Cc1ccc(O)cc1 (stereo not given) [hydroxyamphetamine] (10 µM)	104
COc1cc(C(C)=O)ccc1O [apocynin] (10 µM)	97
CCN(CC)CCNC(=O)c1cc(S(C)(=O)=O)ccc1OC [tiapride] (10 µM)	98

Shift focus to the following entry.
Using the record for CNC(=O)c1ccccc1Nc1nc(Nc2ccc(N3CCOCC3)cc2OC)ncc1Cl (10 µM) , report its SARS-CoV-2 infection rate.
97.5
